- tested_target: Solute carrier family 2, facilitated glucose transporter member 1 (Homo sapiens) (UniProt P11166)
- Sequence (P11166 whole entry): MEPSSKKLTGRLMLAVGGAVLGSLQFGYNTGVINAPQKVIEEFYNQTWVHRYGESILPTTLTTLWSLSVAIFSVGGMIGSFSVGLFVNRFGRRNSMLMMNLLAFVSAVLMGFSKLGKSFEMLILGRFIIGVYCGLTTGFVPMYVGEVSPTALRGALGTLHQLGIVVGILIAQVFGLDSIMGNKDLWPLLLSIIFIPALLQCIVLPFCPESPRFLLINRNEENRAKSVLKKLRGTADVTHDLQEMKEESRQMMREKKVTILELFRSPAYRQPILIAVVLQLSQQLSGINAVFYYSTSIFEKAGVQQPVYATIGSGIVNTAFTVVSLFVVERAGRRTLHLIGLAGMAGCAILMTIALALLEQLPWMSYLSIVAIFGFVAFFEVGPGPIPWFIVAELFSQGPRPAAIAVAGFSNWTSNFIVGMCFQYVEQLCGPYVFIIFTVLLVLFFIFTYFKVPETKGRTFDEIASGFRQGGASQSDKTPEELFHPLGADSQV
- measurement_protocol: ST_JUDE_LEISH: Cytotoxicity at 2uM final concentration against transgenic Leishmania Mexicana promastigotes LmGLUT1 that are glucose transport deficient and complemented with the human glucose transporter GLUT1. Activity is measured by DNA content using SYBR green in vitro
- Format: functional
property_name: inhibition

Reported inhibition for "Cc1ccc(-c2nc3ccccc3o2)cc1NCc1cc(Cc2ccccc2)ccc1O" was -0.71%

Field inhibition (entry "COc1cc(CNCCCCCCNCc2cc(OC)c(OC)c3ccccc23)c2ccccc2c1OC" ) reads 4.44%

// sample "CCn1c(SCc2ccccc2)nc2c1c(=O)[nH]c(=O)n2C" , its inhibition was -0.07%

For record "CN1CCN(CCCN(Cc2cccc(-c3ccc(CNCc4ccc5c(c4)OCO5)cc3)c2)C(=O)CCC2CCCC2)CC1" the listed inhibition is 51.2%

Record "CCCCc1ccc(-c2ccc(-c3c(C)[nH]c(C)c(Br)c3=O)cn2)cc1" , field inhibition: 2.88%

Others:
Looking up "N=C(N)NN=Cc1cc2ccccc2c2ccccc12" , I found its inhibition recorded as 8.49%

Looking up "Nc1ncc(-c2ccsc2)c2ccc(-c3cc(NCc4ccccc4)ncn3)cc12" , I see its inhibition listed as 10.1%

Value of measured inhibition for the entry "CCCCCCCN1CC[C@@H](CCCc2ccnc3ccc(OCCN4CCNCC4)cc23)[C@@H](CC)C1" : 5.11%

// field: inhibition; key: "CN1CCN(CCc2ccc3nc(-c4csc(Cc5cc(Cl)ccc5OCc5ccccc5)n4)[nH]c3c2)CC1" ; value = 0.84%

Data point: "CCNc1cc(C(=O)N[C@@H](Cc2ccccc2)[C@H](O)CNC2(Cc3cccc(Cl)c3)CCC2)cc(N2CCCCS2(=O)=O)c1" ; inhibition = -0.69%

Lab note: measured inhibition of "COc1ccc(N2CCN(CCCCNC(=O)c3ccc(/C=C/c4ccc(Cl)c(Cl)c4)cc3)CC2)c(OC)c1" was -0.28%
